biological target: CK2A1 (CK2α/β) (Homo sapiens); test: CK2 kinase assay, CK2A1 (CK2α/β); format: biochemical; conditions: Table A; read-out: CK2A1 (CK2α/β) (IC50)
Sequence (P68400 whole entry, species assumed): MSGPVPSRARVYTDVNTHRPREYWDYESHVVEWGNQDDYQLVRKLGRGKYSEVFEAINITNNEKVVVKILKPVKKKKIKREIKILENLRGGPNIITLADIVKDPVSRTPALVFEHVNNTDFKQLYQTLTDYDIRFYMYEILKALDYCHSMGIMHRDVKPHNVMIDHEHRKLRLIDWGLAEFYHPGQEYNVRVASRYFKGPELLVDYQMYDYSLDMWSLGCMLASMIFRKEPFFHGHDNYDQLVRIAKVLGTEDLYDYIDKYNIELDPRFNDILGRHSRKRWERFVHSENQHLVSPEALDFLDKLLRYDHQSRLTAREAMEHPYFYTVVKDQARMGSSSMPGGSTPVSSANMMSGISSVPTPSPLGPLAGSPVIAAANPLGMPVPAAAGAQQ
Sequence (P67870 whole entry partner, species assumed): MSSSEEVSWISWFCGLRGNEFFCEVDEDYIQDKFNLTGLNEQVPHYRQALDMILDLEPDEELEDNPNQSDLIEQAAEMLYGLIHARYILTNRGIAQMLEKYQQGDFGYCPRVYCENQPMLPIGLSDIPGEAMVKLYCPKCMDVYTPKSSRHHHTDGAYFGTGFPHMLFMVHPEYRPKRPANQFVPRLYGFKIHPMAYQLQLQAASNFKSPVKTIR
Measured Parameter: IC50 (nM)
Answer in nM, number only, no unit symbol.

>  <Compound>
N#Cc1cc(Nc2nc(NC3CC3)c3ncc(C#N)n3n2)c(Cl)c(N2C[C@@H](O)[C@H](N3CCOCC3)C2)c1 [Example 307]

>  <Unit Of Measurement>
nM

>  <IC50>
0.88

$$$$
>  <Compound>
CC(C)(C)NCC(O)c1cc(C#N)cc(Nc2nc(NC3CC3)c3ncc(C#N)n3n2)c1Cl (stereo not shown) [Example 692]

>  <Unit Of Measurement>
nM

>  <IC50>
1.81

$$$$

I would be grateful if you could share the reported IC50 for N#Cc1cc(Nc2nc(NC3CC3)c3ncc(C#N)n3n2)c(Cl)c(N2CCN3C[C@H](O)C[C@@H]3C2)c1 (racemic) [Example 435] .
1.13

I would be grateful if you could share the reported IC50 for CC(C)(N)C(=O)N1CCC(c2cc(C#N)cc(Nc3nc(NC4CC4)c4ncc(C#N)n4n3)c2Cl)CC1 [Example 239] .
0.49

I would be grateful if you could share the reported IC50 for CC(C)(C)CC(=O)N1CCC(c2cc(C#N)cc(Nc3nc(NC4CC4)c4ncc(C#N)n4n3)c2Cl)CC1 [Example 235] .
3.86

I would be grateful if you could share the reported IC50 for N#Cc1cc(Nc2nc(NC3CC3)c3ncc(C#N)n3n2)c(Cl)c(N2CCC3(CC2)CNC3)c1 [Example 792] .
1.03

I would be grateful if you could share the reported IC50 for CN1CCN(c2cc(C#N)cc(Nc3nc(NC4CC4)c4ncc(C#N)n4n3)c2Cl)CC1CN1CC(F)C1 (stereo not shown) [Example 708] .
0.52

I would be grateful if you could share the reported IC50 for N#Cc1cc(Nc2nc(NC3CC3)c3ncc(C#N)n3n2)c(Cl)c(C2(O)COC2)c1 [Example 653] .
1.84

I would be grateful if you could share the reported IC50 for CCNc1nc(Nc2cc(C#N)cc(N3CC[C@H](NC(=O)OC)[C@@H](OP(=O)(O)O)C3)c2Cl)nn2c(C#N)cnc12 [Example 338] .
0.82

I would be grateful if you could share the reported IC50 for CCNc1nc(Nc2cc(C#N)cc(C3CCN(C(C)=O)CC3)c2Cl)nn2c(C#N)cnc12 [Example 354] .
0.52

I would be grateful if you could share the reported IC50 for N#Cc1cc(CNC2CCOCC2)c(Cl)c(Nc2nc(NC3CC3)c3ncc(C#N)n3n2)c1 [Example 664] .
0.98

I would be grateful if you could share the reported IC50 for CN1CCC2(CC1)CN(c1cc(C#N)cc(Nc3nc(NC4CC4)c4ncc(C#N)n4n3)c1Cl)C2 [Example 22] .
0.68

I would be grateful if you could share the reported IC50 for COC1CCN(C2CN(c3cc(C#N)cc(Nc4nc(NC5CC5)c5ncc(C#N)n5n4)c3Cl)C2)CC1 [Example 164] .
0.57

I would be grateful if you could share the reported IC50 for N#Cc1cc(Nc2nc(NC3CC3)c3ncc(C#N)n3n2)c(F)c(N2CCN(C3COC3)CC2)c1 [Example 548] .
0.8

I would be grateful if you could share the reported IC50 for COC(=O)N1CCC2CN(c3cc(C#N)cc(Nc4nc(NC5CC5)c5ncc(C#N)n5n4)c3Cl)CCC21 (stereo not shown) [Example 445] .
2.9

I would be grateful if you could share the reported IC50 for CC(CCNCCC(F)(F)F)c1cc(C#N)cc(Nc2nc(NC3CC3)c3ncc(C#N)n3n2)c1Cl (stereo not shown) [Example 576] .
1.59

I would be grateful if you could share the reported IC50 for N#Cc1cc(Nc2nc(NC3CC3)c3ncc(C#N)n3n2)c(Cl)c([C@H]2CCC[C@@H](N3CC(O)C3)C2)c1 (single isomer, unassigned) [Example 730] .
1.22

I would be grateful if you could share the reported IC50 for N#Cc1cc(Nc2nc(NC3CC3)c3ncc(C#N)n3n2)c(Cl)c(N2CCC[C@@H](N)C2)c1 [Example 40] .
2.49

I would be grateful if you could share the reported IC50 for N#Cc1cc(Nc2nc(NC3CC3)c3ncc(C#N)n3n2)c(Cl)c(N2CCN([C@H]3C[C@H](F)C3)CC2)c1 [Example 601] .
1.41

* * *

target: CK2A1 (CK2α/β) (Homo sapiens); assay: CK2 kinase assay, CK2A1 (CK2α/β); type: biochemical; conditions: Table A; read-out: CK2A1 (CK2α/β) (IC50)
pIC50: −log10 of the molar value.
pIC50 vs 9: at or above is T, below is F.

Solved entries (count: 4):
>  <Molecule>
CCNc1nc(Nc2cc(C#N)cc(N3CCC(N)CC3)c2Cl)nn2c(C#N)cnc12

>  <Assigned Category>
T

$$$$
>  <Molecule>
N#Cc1cc(Nc2nc(NC3CC3)c3ncc(C#N)n3n2)c(Cl)c(N2CCN(C3CN(S(=O)(=O)CC(F)(F)F)C3)CC2)c1

>  <Assigned Category>
F

$$$$
>  <Molecule>
N#Cc1cc(CCC2CNCCO2)c(Cl)c(Nc2nc(NC3CC3)c3ncc(C#N)n3n2)c1 (racemic)

>  <Assigned Category>
T

$$$$
>  <Molecule>
N#Cc1cc(Nc2nc(NC3CC3)c3ncc(C#N)n3n2)c(Cl)c(N2CC[C@H]3NC(=O)CO[C@@H]3C2)c1 (racemic)

>  <Assigned Category>
F

$$$$

Evaluate "N#Cc1cnc2c(NC3CC3)nc(Nc3cc(C(F)F)cc(N4CCC(C(=O)NC5COC5)CC4)c3Cl)nn12" : pIC50 at minimum 9?
F

* * *

target: CK2A1 (CK2α/β) (Homo sapiens); assay: CK2 kinase assay, CK2A1 (CK2α/β); type: biochemical; details: Table A; read-out: CK2A1 (CK2α/β) (IC50)
pIC50: −log10 of the molar value.
pIC50 vs 9: at or above is Fulfilled, below is Not fulfilled.

Solved entries (count: 5):
>  <Molecule>
N#Cc1cc(Nc2nc(NC3CC3)c3ncc(C#N)n3n2)c(Cl)c(N2CCN(C3COC3)C(CF)C2)c1 (racemic)

>  <Assayed Target>
CK2A1 (CK2α/β) (Homo sapiens)

>  <Assigned Category>
Fulfilled

$$$$
>  <Molecule>
N#Cc1cc(Nc2nc(NC3CC3)c3ncc(C#N)n3n2)c(Cl)c(N2CCN(C3CN(C(=O)C4CCC(=O)N4)C3)CC2)c1 (centres unmarked)

>  <Assayed Target>
CK2A1 (CK2α/β) (Homo sapiens)

>  <Assigned Category>
Not fulfilled

$$$$
>  <Molecule>
C=CC1(N2CCC(c3cc(C#N)cc(Nc4nc(NC5CC5)c5ncc(C#N)n5n4)c3Cl)CC2)COC1

>  <Assayed Target>
CK2A1 (CK2α/β) (Homo sapiens)

>  <Assigned Category>
Not fulfilled

$$$$
>  <Molecule>
COC(=O)N[C@@H]1CN(c2cc(C#N)cc(Nc3nc(NC4CC4)c4ncc(C#N)n4n3)c2Cl)C[C@@H]1C [Example 293]

>  <Assayed Target>
CK2A1 (CK2α/β) (Homo sapiens)

>  <Assigned Category>
Not fulfilled

$$$$
>  <Molecule>
COC1CN(CC(=O)N2CCN(c3cc(C#N)cc(Nc4nc(NC5CC5)c5ncc(C#N)n5n4)c3Cl)CC2)C1

>  <Assayed Target>
CK2A1 (CK2α/β) (Homo sapiens)

>  <Assigned Category>
Not fulfilled

$$$$

Evaluate "N#Cc1cc(Nc2nc(NC3CC3)c3ncc(C#N)n3n2)c(Cl)c(N2CCN(C3CN(S(=O)(=O)C4CC4)C3)CC2)c1" : pIC50 at minimum 9?
Not fulfilled

Evaluate "COC1CN(CCCCc2cc(Cl)c(Nc3nc(NC4CC4)c4ncc(C#N)n4n3)cc2C#N)C1" : pIC50 at minimum 9?
Not fulfilled

Evaluate "CC(C)(O)[C@@H]1CN(c2cc(C#N)cc(Nc3nc(NC4CC4)c4ncc(C#N)n4n3)c2Cl)CCO1" : pIC50 at minimum 9?
Fulfilled

* * *

biological target: CK2A1 (CK2α/β) (Homo sapiens); test: CK2 kinase assay, CK2A1 (CK2α/β); format: biochemical; details: Table A; read-out: CK2A1 (CK2α/β) (IC50)
Where a name gives a salt, the structure may show the parent alone.
Measured Parameter: pIC50
By convention, pIC50 is the negative base-10 log of a molar concentration.

>  <Compound>
Cc1cc(CNC2CCN(c3cc(C#N)cc(Nc4nc(NC5CC5)c5ncc(C#N)n5n4)c3Cl)CC2)on1

>  <Assay Result>
8.57

$$$$
>  <Compound>
N#Cc1cc(Nc2nc(NC3CC3)c3ncc(C#N)n3n2)c(Cl)c(N2CCN(C(=O)CO)CC2)c1

>  <Assay Result>
9.39

$$$$
>  <Compound>
CCNc1nc(Nc2cc(C#N)cc(N3CC[C@@H](NC(=O)OC)[C@H](OC(=O)[C@@H](NC(=O)[C@@H](N)CCCCN)C(C)C)C3)c2Cl)nn2c(C#N)cnc12 [Example 822, dihydrochloride]

>  <Assay Result>
8.76

$$$$
>  <Compound>
N#Cc1cc(Nc2nc(NC3CC3)c3ncc(C#N)n3n2)c(Cl)c(N2CCN(C(=O)CCCn3ccnc3)CC2)c1

>  <Assay Result>
9.20

$$$$
>  <Compound>
CCNc1nc(Nc2cc(C#N)cc(N3CC[C@@H]4[C@@H](C3)OC(=O)N4C3COC3)c2Cl)nn2c(C#N)cnc12 [Example 839]

>  <Assay Result>
8.92

$$$$

I would be grateful if you could share the reported pIC50 for "COC[C@H](O)CN1CCN(c2cc(C#N)cc(Nc3nc(NC4CC4)c4ncc(C#N)n4n3)c2Cl)CC1" .
9.14

I would be grateful if you could share the reported pIC50 for "COC(=O)N1CCN(c2cc(C#N)cc(Nc3nc(NC4CC4)c4ncc(C#N)n4n3)c2Cl)CC1" .
9.32

I would be grateful if you could share the reported pIC50 for CC(O)CN1CC2(CCN(c3cc(C#N)cc(Nc4nc(NC5CC5)c5ncc(C#N)n5n4)c3Cl)CC2)C1 (racemic) .
8.18

I would be grateful if you could share the reported pIC50 for CC(CC(C)c1cc(Cl)c(Nc2nc(NC3CC3)c3ncc(C#N)n3n2)cc1C#N)NCCC(F)(F)F (single isomer, unassigned) [Example 735] .
8.36

I would be grateful if you could share the reported pIC50 for "CCNc1nc(Nc2cc(C#N)cc(N3CCN(C4COC4)CC3)c2F)nn2c(C#N)cnc12" .
8.43

I would be grateful if you could share the reported pIC50 for "CN(CCO)CC(=O)Nc1cc(C#N)cc(Nc2nc(NC3CC3)c3ncc(C#N)n3n2)c1Cl" .
8.78
